Measured Decomposition efficiency of daidzin family in concentrated soybean protein, listed per entry for reference.
# System: Crude diglycosidase
# experimentDescription: Examination of pH in the conversion into isoflavone aglycons by diglycosidase using soybean materials
# Format: biochemical, Penicillium multicolor IAM7153
# particulars: pH2.7; heat treatment of enzyme: no; reaction time 6 h
I only need the number, in %, no unit after it.

compound: CC(=O)OC[C@H]1O[C@@H](Oc2ccc3c(=O)c(-c4ccc(O)cc4)coc3c2)[C@H](O)[C@@H](O)[C@@H]1O [acetyldaidzin, 6″-O-acetyldaidzin]
readoutNumber: 45.8

Query block: Form field: reported Decomposition efficiency of daidzin family in concentrated soybean protein of O=c1c(-c2ccc(O)cc2)coc2cc(O[C@@H]3O[C@H](CO)[C@@H](O)[C@H](O)[C@H]3O)ccc12 [daidzin]
Result block: 9.3

Query block: Given the compound O=c1c(-c2ccc(O)cc2)coc2cc(O)ccc12 [daidzein] , what is its reported Decomposition efficiency of daidzin family in concentrated soybean protein?
Result block: 45.0

* * *

# System: Crude diglycosidase
# experimentDescription: Examination of pH in the conversion into isoflavone aglycons by diglycosidase using soybean materials
# Assay type: biochemical, Penicillium multicolor IAM7153
# particulars: pH8.5, heat treatment of enzyme yes, reaction time 6 h, 55° C.
measurementKind: Decomposition efficiency of daidzin family in roasted soy flour

Worked set:
smilesString: O=c1c(-c2ccc(O)cc2)coc2cc(O[C@@H]3O[C@H](CO)[C@@H](O)[C@H](O)[C@H]3O)ccc12
targetSystem: Crude diglycosidase
result: 58.8
--
smilesString: CC(=O)OC[C@H]1O[C@@H](Oc2ccc3c(=O)c(-c4ccc(O)cc4)coc3c2)[C@H](O)[C@@H](O)[C@@H]1O
targetSystem: Crude diglycosidase
result: 37.3

Query block: Recorded Decomposition efficiency of daidzin family in roasted soy flour of `O=c1c(-c2ccc(O)cc2)coc2cc(O)ccc12` , please.
Result block: 3.9

* * *

# System: Crude diglycosidase
# experimentDescription: Examination of substrate concentration in the conversion into isoflavone aglycons by diglycosidase using soybean materials;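 on Decomposition efficiency: ratio of each glycoside/aglycon within its isoflavone family: percent of the isoflavone family total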
# Type: biochemical, Penicillium multicolor IAM7153
# particulars: defatted soybean, substrate concentration 5%, heat treatment of enzyme no, reaction time 1 h
measurementKind: Decomposition efficiency: ratio of each glycoside/aglycon within its isoflavone family (%)
Response body: numeric value in %, unit text excluded.

compound: COc1cc2c(=O)c(-c3ccc(O)cc3)coc2cc1O [glycitein]
readoutNumber: 58.4

Query block: Which value of Decomposition efficiency: ratio of each glycoside/aglycon within its isoflavone family has been reported for COc1cc2c(=O)c(-c3ccc(O)cc3)coc2cc1O[C@@H]1O[C@H](COC(=O)CC(=O)O)[C@@H](O)[C@H](O)[C@H]1O [malonylglycitin, 6″-O-malonylglycitin] in the records?
Result block: 41.6

* * *

# System: Crude diglycosidase
# experimentDescription: Examination of temperature in the conversion into isoflavone aglycons by diglycosidase using soybean materials
# Format: biochemical, Penicillium multicolor IAM7153
# Set-up: concentration or dose not given beside the values
# particulars: 65 °C; heat treatment of enzyme: no; 6 h
measurementKind: Decomposition efficiency of glycitin family in roasted soy flour (%)
Return type: number; implicit unit %.

compound: COc1cc2c(=O)c(-c3ccc(O)cc3)coc2cc1O[C@@H]1O[C@H](COC(C)=O)[C@@H](O)[C@H](O)[C@H]1O [acetylglycitin, 6″-O-acetylglycitin]
unitSpec: %
readoutNumber: 29.0

Please examine the following record next.
Query block: Recall the recorded Decomposition efficiency of glycitin family in roasted soy flour for COc1cc2c(=O)c(-c3ccc(O)cc3)coc2cc1O [glycitein] with Crude diglycosidase and state it.
Result block: 71.0

* * *

# System: Crude diglycosidase
# experimentDescription: Examination of substrate concentration in the conversion into isoflavone aglycons by diglycosidase using soybean materials
# Type: biochemical, Penicillium multicolor IAM7153
# particulars: substrate concentration 5%, heat treatment of enzyme no, reaction time 0 h
Documented Decomposition efficiency of genistin family in defatted soybean across a set of molecules
Enter the number alone.

Use the examples below as a reference point.
smilesString: O=c1c(-c2ccc(O)cc2)coc2cc(O[C@@H]3O[C@H](CO)[C@@H](O)[C@H](O)[C@H]3O)cc(O)c12
targetSystem: Crude diglycosidase
readoutNumber: 40.0
//
smilesString: CC(=O)OC[C@H]1O[C@@H](Oc2cc(O)c3c(=O)c(-c4ccc(O)cc4)coc3c2)[C@H](O)[C@@H](O)[C@@H]1O
targetSystem: Crude diglycosidase
readoutNumber: 1.9
//
smilesString: O=c1c(-c2ccc(O)cc2)coc2cc(O)cc(O)c12
targetSystem: Crude diglycosidase
readoutNumber: 14.2

Query block: Dear colleague, I am looking for the recorded Decomposition efficiency of genistin family in defatted soybean of the following molecule: `O=C(O)CC(=O)OC[C@H]1O[C@@H](Oc2cc(O)c3c(=O)c(-c4ccc(O)cc4)coc3c2)[C@H](O)[C@@H](O)[C@@H]1O`
Result block: 43.9

* * *

# System: Crude diglycosidase
# experimentDescription: Examination of substrate concentration in the conversion into isoflavone aglycons by diglycosidase using soybean materials;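 on Decomposition efficiency: ratio of each glycoside/aglycon within its isoflavone family: percent of the isoflavone family total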
# Type: biochemical, Penicillium multicolor IAM7153
# particulars: roasted soy flour, substrate concentration 20%, heat treatment of enzyme yes, reaction time 6 h
Below: a set of entries, each annotated with reported Decomposition efficiency: ratio of each glycoside/aglycon within its isoflavone family.
Report as a plain number; the unit % is understood.

smilesString: CC(=O)OC[C@H]1O[C@@H](Oc2cc(O)c3c(=O)c(-c4ccc(O)cc4)coc3c2)[C@H](O)[C@@H](O)[C@@H]1O
targetSystem: Crude diglycosidase
readoutNumber: 46.2

Query block: Lookup: Decomposition efficiency: ratio of each glycoside/aglycon within its isoflavone family / Crude diglycosidase / `COc1cc2c(=O)c(-c3ccc(O)cc3)coc2cc1O[C@@H]1O[C@H](COC(C)=O)[C@@H](O)[C@H](O)[C@H]1O`
Result block: 35.0

Query block: Please provide the recorded Decomposition efficiency: ratio of each glycoside/aglycon within its isoflavone family for `COc1cc2c(=O)c(-c3ccc(O)cc3)coc2cc1O[C@@H]1O[C@H](CO)[C@@H](O)[C@H](O)[C@H]1O` , tested on Crude diglycosidase.
Result block: 56.0

* * *

# Tested on: Crude diglycosidase
# experimentDescription: Examination of pH in the conversion into isoflavone aglycons by diglycosidase using soybean materials
# Format: biochemical, Penicillium multicolor IAM7153
# Design: concentration or dose not given beside the values
# particulars: pH3.4; heat treatment of enzyme: no; reaction time 1 h
measurementKind: Decomposition efficiency of daidzin family in defatted soybean (%)
Form entry: value (%) — number only.

smilesString: O=C(O)CC(=O)OC[C@H]1O[C@@H](Oc2ccc3c(=O)c(-c4ccc(O)cc4)coc3c2)[C@H](O)[C@@H](O)[C@@H]1O
readoutNumber: 39.4

Query block: Fill in: Decomposition efficiency of daidzin family in defatted soybean of `O=c1c(-c2ccc(O)cc2)coc2cc(O)ccc12` is ___
Result block: 60.6

* * *

Catalogue of Decomposition efficiency of daidzin family in roasted soy flour readings, one per entry.
# Tested on: Crude diglycosidase
# experimentDescription: Examination of temperature in the conversion into isoflavone aglycons by diglycosidase using soybean materials
# Assay type: biochemical, Penicillium multicolor IAM7153
# Parameters: concentration or dose not given beside the values
# particulars: 35 °C; heat treatment of enzyme: no; 1 h
Respond numerically; units are % and should not be typed.

Would you please look over these solved cases?
smilesString: CC(=O)OC[C@H]1O[C@@H](Oc2ccc3c(=O)c(-c4ccc(O)cc4)coc3c2)[C@H](O)[C@@H](O)[C@@H]1O
readoutNumber: 46.9
--
smilesString: O=c1c(-c2ccc(O)cc2)coc2cc(O)ccc12
readoutNumber: 41.4

Okay, now this compound:
Query block: Tell me the measured Decomposition efficiency of daidzin family in roasted soy flour of `O=c1c(-c2ccc(O)cc2)coc2cc(O[C@@H]3O[C@H](CO)[C@@H](O)[C@H](O)[C@H]3O)ccc12` , please.
Result block: 11.7

* * *

# Test system: Crude diglycosidase
# experimentDescription: Examination of substrate concentration in the conversion into isoflavone aglycons by diglycosidase using soybean materials;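 on Decomposition efficiency: ratio of each glycoside/aglycon within its isoflavone family: percent of the isoflavone family total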
# Assay type: biochemical, Penicillium multicolor IAM7153
# particulars: roasted soy flour, substrate concentration 30%, heat treatment of enzyme yes, reaction time 6 h
Listed compounds paired with reported Decomposition efficiency: ratio of each glycoside/aglycon within its isoflavone family
Give just the number in %; leave the unit off.

compound: COc1cc2c(=O)c(-c3ccc(O)cc3)coc2cc1O[C@@H]1O[C@H](CO)[C@@H](O)[C@H](O)[C@H]1O [glycitin]
readoutNumber: 56.9

Query block: // Decomposition efficiency: ratio of each glycoside/aglycon within its isoflavone family lookup, key: CC(=O)OC[C@H]1O[C@@H](Oc2ccc3c(=O)c(-c4ccc(O)cc4)coc3c2)[C@H](O)[C@@H](O)[C@@H]1O [acetyldaidzin, 6″-O-acetyldaidzin]
Result block: 47.4

* * *

# Test system: Crude diglycosidase
# experimentDescription: Examination of temperature in the conversion into isoflavone aglycons by diglycosidase using soybean materials
# Format: biochemical, Penicillium multicolor IAM7153
# particulars: 30° C., heat treatment of enzyme no, reaction time 6 h
measurementKind: Decomposition efficiency of daidzin family in concentrated soybean protein (%)
Answer format: numeric, % implied, no suffix.

Examples with answers:
molecule: O=c1c(-c2ccc(O)cc2)coc2cc(O)ccc12 [daidzein]
readoutNumber: 52.5
//
molecule: O=c1c(-c2ccc(O)cc2)coc2cc(O[C@@H]3O[C@H](CO)[C@@H](O)[C@H](O)[C@H]3O)ccc12 [daidzin]
readoutNumber: 4.0

Note: attention shifts to another entry.
Query block: Notebook: pull reported Decomposition efficiency of daidzin family in concentrated soybean protein for Crude diglycosidase, entry CC(=O)OC[C@H]1O[C@@H](Oc2ccc3c(=O)c(-c4ccc(O)cc4)coc3c2)[C@H](O)[C@@H](O)[C@@H]1O [acetyldaidzin, 6″-O-acetyldaidzin]
Result block: 43.5
